Tested on: 616215-338-R-J1-PDC complex spheroids, viability % test/control
Assay: Anticancer human tumor 616215-338-R-J1-PDC patient-derived colon adenocarcinoma cell line growth inhibition [CLK]
Settings: second compound 0.316 µM; first compound 0.1 µM; active compounds read low
viability, T/C strictly under 20% means class 1; at 20% or over means class 0.

A selection of reference data follows.
[
  {
    "compound": "Nc1ccn(C2OC(CO)C(O)C2(F)F)c(=O)n1 (stereo not given) + CN1CCN(c2cc(C(=O)Nc3cc4cc(-c5cnn(C)c5)ccc4cn3)ccn2)CC1",
    "category-label": "class 1"
  },
  {
    "compound": "COC1C=CCC(C)C(C)S(=O)(=O)NC(=O)c2ccc3c(c2)N(CC2CCC21)CC1(CCCc2cc(Cl)ccc21)CO3 (stereo not given) + CNC(=O)c1ccc(Nc2nc(OC3CCCC3)c3c(-c4ccc5nc(C)oc5c4)c[nH]c3n2)c(OC)c1",
    "category-label": "class 0"
  },
  {
    "compound": "Nc1ccn(C2OC(CO)C(O)C2(F)F)c(=O)n1 (stereo not given) + CNC(=O)c1ccc(Nc2nc(OC3CCCC3)c3c(-c4ccc5nc(C)oc5c4)c[nH]c3n2)c(OC)c1",
    "category-label": "class 1"
  },
  {
    "compound": "CC(=O)O[C@H]1C(=O)[C@@]2(C)[C@H]([C@H](OC(=O)c3ccccc3)[C@]3(O)C[C@H](OC(=O)[C@H](O)[C@@H](NC(=O)c4ccccc4)c4ccccc4)C(C)=C1C3(C)C)[C@]1(OC(C)=O)CO[C@@H]1C[C@@H]2O + CNC(=O)c1ccc(Nc2nc(OC3CCCC3)c3c(-c4ccc5nc(C)oc5c4)c[nH]c3n2)c(OC)c1",
    "category-label": "class 0"
  }
]

API: the following record is the query input.
Hi there! Is viability, T/C for O=C(c1cc(Cc2n[nH]c(=O)c3ccccc23)ccc1F)N1CCN(C(=O)C2CC2)CC1 + CN1CCN(c2cc(C(=O)Nc3cc4cc(-c5cnn(C)c5)ccc4cn3)ccn2)CC1 below 20%, do you know?
class 0

###

Test system: 616215-338-R-J1-PDC complex spheroids, viability % test/control
Assay: Anticancer human tumor 616215-338-R-J1-PDC cell line growth inhibition [CLK];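 further: spheroids exposed to agents for 7 days; 100% = DMSO vehicle wells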
Details: second compound 0.316 µM; first compound 3.16 µM; active compounds read low
measurement-label: viability, T/C (%)
Report the value in % with no unit label.

[
  {
    "molecule": "COC1C=CCC(C)C(C)S(=O)(=O)NC(=O)c2ccc3c(c2)N(CC2CCC21)CC1(CCCc2cc(Cl)ccc21)CO3 (configuration not stated) + CNC(=O)c1ccc(Nc2nc(OC3CCCC3)c3c(-c4ccc5nc(C)oc5c4)c[nH]c3n2)c(OC)c1",
    "viability, T/C, %": 19.6
  }
]

Request - read-out viability, T/C | tested on 616215-338-R-J1-PDC complex spheroids, viability % test/control | molecule C#Cc1c(F)ccc2cc(O)cc(-c3ncc4c(N5CC6CCC(C5)N6)nc(OCC56CCCN5CC(F)C6)nc4c3F)c12 (configuration not stated) + CNC(=O)c1ccc(Nc2nc(OC3CCCC3)c3c(-c4ccc5nc(C)oc5c4)c[nH]c3n2)c(OC)c1
33

Request - read-out viability, T/C | tested on 616215-338-R-J1-PDC complex spheroids, viability % test/control | molecule O=c1[nH]cc(F)c(=O)[nH]1 + CN1CCN(c2cc(C(=O)Nc3cc4cc(-c5cnn(C)c5)ccc4cn3)ccn2)CC1
29.6

Request - read-out viability, T/C | tested on 616215-338-R-J1-PDC complex spheroids, viability % test/control | molecule CCCS(=O)(=O)Nc1ccc(F)c(C(=O)c2c[nH]c3ncc(-c4ccc(Cl)cc4)cc23)c1F + CN1CCN(c2cc(C(=O)Nc3cc4cc(-c5cnn(C)c5)ccc4cn3)ccn2)CC1
21

Request - read-out viability, T/C | tested on 616215-338-R-J1-PDC complex spheroids, viability % test/control | molecule C=C(F)C(=O)N1CCN(c2nc(OCC3CCCN3C)nc3c2CCN(c2cccc4cccc(Cl)c24)C3)CC1CC#N (configuration not stated) + CNC(=O)c1ccc(Nc2nc(OC3CCCC3)c3c(-c4ccc5nc(C)oc5c4)c[nH]c3n2)c(OC)c1
42.1

Request - read-out viability, T/C | tested on 616215-338-R-J1-PDC complex spheroids, viability % test/control | molecule COc1cccc2c1C(=O)c1c(O)c3c(c(O)c1C2=O)CC(O)(C(=O)CO)CC3OC1CC(N)C(O)C(C)O1 (configuration not stated) + CN1CCN(c2cc(C(=O)Nc3cc4cc(-c5cnn(C)c5)ccc4cn3)ccn2)CC1
0.13

Request - read-out viability, T/C | tested on 616215-338-R-J1-PDC complex spheroids, viability % test/control | molecule COc1ccc([C@@H](O)c2cc(-c3ncnc4cc(N5CCOCC5)ccc34)c(F)cc2Cl)nn1 + CNC(=O)c1ccc(Nc2nc(OC3CCCC3)c3c(-c4ccc5nc(C)oc5c4)c[nH]c3n2)c(OC)c1
32.4
